- ASSAY OVERVIEW: PK protocol, intravenous administration
- Type: in vivo, male Sprague Dawley rats
- APPLIED CONDITIONS: male, Sprague Dawley, rat, plasma, dose (mg/kg)
Where a name gives a salt, the structure may show the parent alone.
ASSAY READOUT: half-life (h)

Example results:
> print(dat)
                                   molecule  assay.readout  reading.unit  reported.measurement
1  CNCc1cc(S(=O)(=O)NC(=O)Nc2c3c(cc4c2CCC4)CCC3)nn1C(C)C      half-life             h                   3.5
2  CCn1nc(S(=O)(=O)NC(=O)Nc2c3c(cc4c2CCC4)CCC3)cc1CN(C)C      half-life             h                   1.5
3  CC(C)c1cc(F)cc(C(C)C)c1NC(=O)NS(=O)(=O)c1cc(CN(C)C)n(C)n1 [Example 92, Sodium Salt]      half-life             h                   3.2
4  CN(C)Cc1cc(S(=O)(=O)NC(=O)Nc2c3c(cc4c2CCC4)CCC3)nn1C      half-life             h                   1.1
5  CC(C)c1cc(F)cc(C(C)C)c1NC(=O)NS(=O)(=O)c1cc(CN2CCC2)n(C)n1 [Example 88, Sodium Salt]      half-life             h                   4.3
6  CC(c1cc(S(=O)(=O)NC(=O)Nc2c3c(cc4c2CCC4)CCC3)nn1C1CC1)N1CCC1 (stereo not drawn)      half-life             h                     1

a. CC(C)c1cc(Cl)cc(C(C)C)c1NC(=O)NS(=O)(=O)c1cc(CN(C)C)n(C)n1 [Example 93, Sodium Salt]
b. CCC(c1cc(S(=O)(=O)NC(=O)Nc2c3c(cc4c2CCC4)CCC3)nn1C(C)C)N(C)C (stereo not drawn)
c. CN(C)CCn1nc(S(=O)(=O)NC(=O)Nc2c3c(cc4c2CCC4)CCC3)cc1CN(C)C
Ask | Task field, ranking: reported half-life, descending order. Please list the labels in the order you were asked to rank them.
Reply | a, c, b
(a: 3.3 h, c: 1.3 h, b: 0.8 h)

----------
- ASSAY OVERVIEW: PK protocol, oral administration
- Assay type: in vivo, male Sprague Dawley rats
- APPLIED CONDITIONS: male, Sprague Dawley, rat, plasma, po, dose (mg/kg)
ASSAY READOUT: AUC (ng·h/mL)

a. CN(C)Cc1cc(S(=O)(=O)NC(=O)Nc2c3c(cc4c2CCC4)CCC3)nn1C
b. CC(c1cc(S(=O)(=O)NC(=O)Nc2c3c(cc4c2CCC4)CCC3)nn1C)N1CCC1 (stereo not drawn)
Ask | Which item exceeds the other in AUC, a or b ? Kindly state the label of the option you pick.
Reply | a

----------
Recorded pIC50 values for a group of molecules are listed next.
- STUDY SYSTEM: UniProtKB Q96P20
- Sequence (Q96P20 whole entry): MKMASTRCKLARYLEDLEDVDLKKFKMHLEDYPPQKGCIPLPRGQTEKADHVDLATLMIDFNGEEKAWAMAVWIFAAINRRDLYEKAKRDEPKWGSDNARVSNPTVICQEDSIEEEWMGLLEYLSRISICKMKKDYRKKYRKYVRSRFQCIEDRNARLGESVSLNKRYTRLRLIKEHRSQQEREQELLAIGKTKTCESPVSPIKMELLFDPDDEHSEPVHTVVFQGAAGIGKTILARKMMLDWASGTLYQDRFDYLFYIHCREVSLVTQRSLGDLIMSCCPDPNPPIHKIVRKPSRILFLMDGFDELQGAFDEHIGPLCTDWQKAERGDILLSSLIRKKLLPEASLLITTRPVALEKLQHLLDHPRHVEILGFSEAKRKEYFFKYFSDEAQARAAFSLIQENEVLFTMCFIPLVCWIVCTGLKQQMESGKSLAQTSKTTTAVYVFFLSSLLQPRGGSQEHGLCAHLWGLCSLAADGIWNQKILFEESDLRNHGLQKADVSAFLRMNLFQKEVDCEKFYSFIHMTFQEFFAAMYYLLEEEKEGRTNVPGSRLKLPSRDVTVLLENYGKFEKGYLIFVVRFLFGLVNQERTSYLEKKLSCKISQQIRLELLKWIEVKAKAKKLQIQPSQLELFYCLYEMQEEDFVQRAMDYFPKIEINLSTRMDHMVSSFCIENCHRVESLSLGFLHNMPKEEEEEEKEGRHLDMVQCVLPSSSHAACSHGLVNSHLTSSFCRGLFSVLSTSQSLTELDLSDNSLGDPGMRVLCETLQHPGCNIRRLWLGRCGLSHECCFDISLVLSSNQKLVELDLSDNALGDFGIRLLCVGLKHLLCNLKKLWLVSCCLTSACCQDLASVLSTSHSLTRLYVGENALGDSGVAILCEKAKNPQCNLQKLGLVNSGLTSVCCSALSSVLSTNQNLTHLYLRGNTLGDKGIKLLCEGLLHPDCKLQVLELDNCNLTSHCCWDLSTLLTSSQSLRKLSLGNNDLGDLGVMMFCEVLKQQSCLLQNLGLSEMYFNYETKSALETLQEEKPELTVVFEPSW
- ASSAY OVERVIEW: THP-1 cells pyroptosis assay (LPS + nigericin, resazurin readout)
- Format: cell-based
- Set-up: Seed THP-1 cells (25,000 cells/well) containing 1.0 μg/ml LPS in 40 μl of RPMI medium; host or cells: THP-1 cells
- APPLIED CONDITIONS: NLRP3 inhibitory activity, 1.0 μg/ml LPS, 5 μM nigericin
pIC50: −log10 of the molar value. Structures can show the parent of a compound that is named as a salt.

> print(dat)
                                    molecule  assay.readout  reported.measurement
 1  CC(c1cc(S(=O)(=O)NC(=O)Nc2c3c(cc4c2CCC4)CCC3)nn1C(C)C)N(C)C (centres unmarked)          pIC50                > 7.40
 2  CN(C)CCn1nc(S(=O)(=O)NC(=O)Nc2c3c(cc4c2CCC4)CCC3)cc1C(C)(C)O          pIC50          6.80 to 7.40
 3  CCn1nc(S(=O)(=O)NC(=O)Nc2c(C(C)C)cc(F)cc2C(C)C)cc1CN(C)C          pIC50          6.19 to 6.80
 4  CN(Cc1cc(S(=O)(=O)NC(=O)Nc2c3c(cc4c2CCC4)CCC3)nn1C)C1CC1 [Example 85, Sodium Salt]          pIC50          6.19 to 6.80
 5  CCC(c1cc(S(=O)(=O)NC(=O)Nc2c3c(cc4c2CCC4)CCC3)nn1C(C)C)N(C)C (centres unmarked)          pIC50                > 7.40
 6  CC(c1cc(S(=O)(=O)NC(=O)Nc2c3c(cc4c2CCC4)CCC3)nn1C)N1CCC1 (single isomer, unassigned; enantiomer 1) [Example 26]          pIC50          6.80 to 7.40
 7  CCC(c1cc(S(=O)(=O)NC(=O)Nc2c(C(C)C)cc(Cl)cc2C(C)C)nn1C)N(C)C (centres unmarked)          pIC50                > 7.40
 8  CC(C)c1cc(F)cc(-c2cccnc2)c1NC(=O)NS(=O)(=O)c1cc(CN(C)C)n(C(C)C)n1          pIC50          6.19 to 6.80
 9  CC1CN(C(C)c2cc(S(=O)(=O)NC(=O)Nc3c4c(cc5c3CCC5)CCC4)nn2C)C1 (centres unmarked)          pIC50          6.80 to 7.40
10  CN1CCn2nc(S(=O)(=O)NC(=O)Nc3c4c(cc5c3CCC5)CCC4)cc2C1          pIC50          6.19 to 6.80

Ask | Which value of pIC50 has been reported for CNCc1cc(S(=O)(=O)NC(=O)Nc2c3c(cc4c2CCC4)CCC3)nn1C1CC1 in the records?
Reply | 6.80 to 7.40

Ask | May I ask what pIC50 has been recorded for CN1CC(O)(c2cc(S(=O)(=O)NC(=O)Nc3c4c(cc5c3CCC5)CCC4)nn2C)C1 ?
Reply | 6.19 to 6.80

Ask | Tell me the measured pIC50 of CC(C)c1cc(F)cc(-c2cncnc2)c1NC(=O)NS(=O)(=O)c1cc(C(=O)N(C)C)n(C)n1 [Example 135, sodium Salt] , please.
Reply | 6.19 to 6.80

Ask | Query: pIC50; subject: CCC(c1cc(S(=O)(=O)NC(=O)Nc2c3c(cc4c2CCC4)CCC3)nn1C)N(C)C (single isomer, unassigned; enantiomer 1) [Example 71]
Reply | > 7.40

Ask | Entry under review: CC(C)c1cc(F)cc(-c2cccnc2)c1NC(=O)NS(=O)(=O)c1cc(CN(C)C)n(C)n1 . Reported pIC50?
Reply | 6.80 to 7.40

Ask | For the molecule shown here, CCC(c1cc(S(=O)(=O)NC(=O)Nc2c3c(cc4c2CCC4)CCC3)nn1C)N(C)C (centres unmarked) [Example 74] , give the reported pIC50.
Reply | > 7.40

Ask | # input molecule: COCCN(CCO)C(=O)c1cc(S(=O)(=O)NC(=O)Nc2c3c(cc4c2CCC4)CCC3)nn1C [Example 102, ammonium Salt] ; wanted: its pIC50
Reply | 6.80 to 7.40

Ask | Sample CCn1nc(S(=O)(=O)NC(=O)Nc2c3c(cc4c2OCC4)CCC3)cc1CN(C)C — what was its pIC50?
Reply | 6.19 to 6.80

Ask | May I ask what pIC50 has been recorded for CC(c1cc(S(=O)(=O)NC(=O)Nc2c3c(cc4c2CCC4)CCC3)nn1C)N(C)C (single isomer, unassigned; enantiomer 2) [Example 70] ?
Reply | > 7.40

Ask | Given the molecule CCn1nc(S(=O)(=O)NC(=O)Nc2c(-c3ccnc(OC)c3)cc(F)c3c2CCC3)cc1CN(C)C , what is its reported pIC50?
Reply | > 7.40

Ask | Consider the molecule shown here: CC(C)c1cc(F)cc(-c2cccc(C#N)c2)c1NC(=O)NS(=O)(=O)c1cc(CN(C)C)n(C(C)C)n1 What is its recorded pIC50?
Reply | 6.19 to 6.80

Ask | Request the reported pIC50 associated with CC(C)c1cc(F)cc(C(C)C)c1NC(=O)NS(=O)(=O)c1cc(CN(C)C2CC2)n(C)n1 [Example 87, sodium Salt]
Reply | 5.59 to 6.19

Ask | Dear colleague, I am looking for the recorded pIC50 of the following molecule: CC(c1cc(S(=O)(=O)NC(=O)Nc2c3c(cc4c2CCC4)CCC3)nn1C)N1CCC1 (centres unmarked) [Example 76]
Reply | 6.80 to 7.40

Ask | Using the record for CC(C)n1nc(S(=O)(=O)NC(=O)Nc2c3c(cc4c2CCC4)CCC3)cc1CN1CCC1 , report its pIC50.
Reply | > 7.40

Ask | Name the reported pIC50 value associated with the molecule CCC(c1cc(S(=O)(=O)NC(=O)Nc2c(C(C)C)cc(F)cc2C(C)C)nn1C(C)C)N(C)C (centres unmarked)
Reply | 6.19 to 6.80

Ask | Return reported pIC50; argument: CC(C)c1cc(F)cc(C(C)C)c1NC(=O)NS(=O)(=O)c1cc(CN(C)C(C)C)n(C)n1 [Example 90, sodium Salt]
Reply | 6.19 to 6.80
